Readings of IC50 for the listed molecules
target: recombinant HDAC-1 (Homo sapiens, UniProt Q13547); test: HDAC biochemical quench assay; conditions: recombinant HDAC-1 purified from HEK 293 cells, histone H4 peptide substrate 1 μM, 90 min
Sequence (Q13547 whole entry, species assumed): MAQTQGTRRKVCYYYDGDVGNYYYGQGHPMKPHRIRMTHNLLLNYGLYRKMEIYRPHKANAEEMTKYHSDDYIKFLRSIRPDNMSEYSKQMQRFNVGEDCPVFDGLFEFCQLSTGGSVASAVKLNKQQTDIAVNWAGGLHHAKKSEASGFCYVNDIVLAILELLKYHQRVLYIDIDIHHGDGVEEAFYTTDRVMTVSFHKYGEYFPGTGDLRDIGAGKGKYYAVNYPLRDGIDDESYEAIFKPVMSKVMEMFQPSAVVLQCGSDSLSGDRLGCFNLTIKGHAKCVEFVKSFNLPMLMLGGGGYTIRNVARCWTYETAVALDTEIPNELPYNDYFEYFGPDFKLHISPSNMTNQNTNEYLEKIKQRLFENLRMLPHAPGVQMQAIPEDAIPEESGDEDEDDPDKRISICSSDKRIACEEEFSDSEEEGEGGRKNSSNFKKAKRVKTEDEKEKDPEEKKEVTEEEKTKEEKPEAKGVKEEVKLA

Here's what some known entries look like.
CC(NC(=O)c1ccc(C(=O)NO)s1)c1ccccc1 (centres unmarked) [Reference compound, reference compound] : 3.12 nM
CC(NC(=O)c1ccc(C(=O)NO)s1)c1cccc(-c2cn[nH]c2)c1 (centres unmarked) : < 3 nM
CC(NC(=O)c1ccc(C(=O)NO)s1)c1cccc(-c2ccc(F)cc2)c1 (centres unmarked) : 2.52 nM
CC(NC(=O)c1ccc(C(=O)NO)s1)c1ccc(N2CCCCC2)cc1 (centres unmarked) : < 3 nM
CC(NC(=O)c1ccc(C(=O)NO)s1)c1ccc(-c2ccc(N(C)C)cc2)cc1 (centres unmarked) : 3 to 6 nM

Query string: What value of measured IC50 is listed for CC(NC(=O)c1ccc(C(=O)NO)s1)c1ccc(-c2ccccc2F)s1 (centres unmarked) ?
Result string: 4.11 nM

Query string: What value of measured IC50 is listed for CC(NC(=O)c1ccc(C(=O)NO)s1)c1ccc(-c2cccc(F)c2)s1 (centres unmarked) ?
Result string: 3 to 6 nM

Query string: What value of measured IC50 is listed for C[C@@H](NC(=O)c1ccc(C(=O)NO)s1)c1ccc(N2CCOCC2)cc1 ?
Result string: 3 to 6 nM
